System: OVCAR-3 ovarian
experimentalProtocol: NCI tumour cell line growth inhibition, 48 h
reportedMetric: GI50

As a guide, the following entries are already answered.
compound | GI50
C=CC(=O)Nc1cc(N2CCN(CC)CC2)ccc1Nc1cc(N(C)C(=O)Nc2c(Cl)c(OC)cc(OC)c2Cl)ncn1 | 3.49 µM
O=C(c1ccccc1)c1c(NCC(O)CN2CCOCC2)n(Cc2ccccc2)c(=O)n(Cc2ccccc2)c1=O (centres undefined) | 27.6 µM
COc1cc2c(cc1OC)C(=O)/C(=C/c1cc(-c3ccc4c(c3)OCO4)n[nH]1)C2 | 1.41 µM

Q. # get_value(readout='GI50', item= "Cc1nnc2n1N=C(c1ccc(Cl)cc1Cl)/C(=C/c1ccc(-c3ccc([N+](=O)[O-])cc3Cl)o1)S2" )
A. 14.4 µM

----------
Tested on: ACHN renal
experimentalProtocol: NCI tumour cell line growth inhibition, 48 h
For each of the compounds below, state its TGI.

// known answers, use as guide
compound | targetOfAssay | reportedMetric | value
O=C1NC(=O)C(C(CC(=O)c2ccc(Cl)cc2)c2ccc(Cl)cc2)C(=O)N1 (stereo unspecified) | ACHN renal | TGI | > 100 µM
COC(=O)C1C(=O)N(C)C(=O)N2CCCC12 (stereo unspecified) | ACHN renal | TGI | > 100 µM
Cc1c2c(c(C)c3c4c(oc13)CCCC4)C=NCC2 | ACHN renal | TGI | 37.7 µM
Cc1cc(N(CCC#N)CCC#N)ccc1N=Nc1ccc(Br)cc1 | ACHN renal | TGI | > 42.2 µM
CN(C)/N=N/c1nc2c(c(=O)n(C)c(=O)n2C)n1CC(O)CO (stereo unspecified) | ACHN renal | TGI | > 100 µM
C=C(C)CC1(O[Si](C)(C)C)C(=O)C(OCC)=C1OCC (stereo unspecified) | ACHN renal | TGI | > 100 µM

// for each compound below, give its TGI
1. COc1ccc(Nc2ccc3ccccc3c2-c2c(O)ccc3ccccc23)cc1
2. CN(C)CCn1c(CO)nc2c1c(=O)n(C)c(=O)n2C
3. COc1ccc(OC)c(SC(CC(=O)c2ccccc2)c2ccccc2)c1 (stereo unspecified)

A.
["29.8 µM", "> 100 µM", "39 µM"]

Fill in TGI for each of the 2 compounds listed.
1. NNC(=O)C1(NC(=O)c2ccccc2)C(c2ccccc2)C(c2ccccc2)=NN1c1ccccc1 (stereo unspecified)
2. O=c1[nH]c2nc(NC3CCOCC3)ncc2cc1Oc1ccc(F)cc1F

A.
1: > 100 µM; 2: > 25 µM

----------
System: COLO 205 colon
experimentalProtocol: NCI tumour cell line growth inhibition, 48 h
reportedMetric: TGI

Observe how each entry below is paired with its result.
compound | TGI
C=C=C(CC(CC(=C)Br)(C(=O)OC)C(=O)OC)S(=O)(=O)c1ccccc1 | 3.26 µM
COc1ccc2cc(CNCCCCCCNCc3ccc4cc(OC)ccc4c3)ccc2c1 | 0.291 µM
O=C(Oc1ccc(CO[N+](=O)[O-])cc1)c1ccccc1 | 0.301 µM
C=CCC1C(O[Si](C)(C)C(C)(C)C)C(CO[Si](C)(C)C(C)(C)C)OC1n1ccc(=O)[nH]c1=O (stereo not drawn) | 3.13 µM

Report TGI for every entry below.
1. Cc1ccc(S(=O)(=O)Nc2nnc(S(N)(=O)=O)s2)cc1
2. Cc1ccc(N=Nc2c(O)ccc3ccccc23)cc1
3. Cc1ccc(S(=O)CC(CF)OCn2cc(C)c(=O)[nH]c2=O)cc1 (stereo not drawn)
4. COC(=O)C1C(O)C(C)C(O)C(C)C=C(C)C2=C3C(=C(C)C(=O)c4c(O)c(c(C)c(OC(C)=O)c43)NC(=O)C(C)=C/C=C\C(C)C(O)C(C)C1O)OCO2 (stereo not drawn)

A.
["> 100 µM", "> 100 µM", "> 100 µM", "63.6 µM"]

Attribution: PubChem BioAssay (NCI)
